test: HSF-1 activators, primary screen, NIH3T3-HGL cells, MG132 stress, luminescence, single point (AID 504408); conditions: NIH3T3-HGL HSF-1 luciferase reporter, MG132, 8 h; at 9 µM; hits give high values; 100% = twice DMSO control signal;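 note: 0% = median of the neutral control wells and 100% = twice that signal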
Among all 300,000 compounds or so, about 5,200 (1.7%) were called active. The sample as a whole holds a higher share of actives than the screen did.
MEASURED ENDPOINT: activation (%)
The figure you give is taken to be in %; do not add the unit.

Reported activation for "CCCCn1c(N)c(N(CCC(C)C)C(=O)c2ccc(COc3ccccc3)o2)c(=O)[nH]c1=O" was 7.06

Documented activation of "Nc1nc(-c2ccccc2)cc(-c2ccccc2)n1" : 21.8

Recorded activation (compound CCC(C)NC(=O)C1c2ccccc2C(=O)N1Cc1ccccc1 (stereo not drawn) ): 16.4

activation recorded for this compound, "O=C(NCc1cccnc1)c1cc(S(=O)(=O)N2CCOCC2)c(Cl)cc1Cl" , is -12.2

activation in this record for "Cc1ccc2nc(SCC(=O)Nc3cccc4ccccc34)nc(=O)n2c1" : 16.2

Memo: "CCN1CCN(C(=O)N(Cc2ccc(Cl)cc2)S(=O)(=O)c2ccc(C)cc2)CC1" , reported activation: 0.289
